target: CYP2D6 (Homo sapiens, UniProt P10635); construct: purchased BD Gentest, Becton-Dickinson (Supersomes); host or cells: insect cells (microsomes); test: Cytochrome P450 inhibition, CYP2D6; format: in vitro ADME; settings: Supersomes; read-out: IC50 (μM) 2D6
Sequence (P10635 whole entry): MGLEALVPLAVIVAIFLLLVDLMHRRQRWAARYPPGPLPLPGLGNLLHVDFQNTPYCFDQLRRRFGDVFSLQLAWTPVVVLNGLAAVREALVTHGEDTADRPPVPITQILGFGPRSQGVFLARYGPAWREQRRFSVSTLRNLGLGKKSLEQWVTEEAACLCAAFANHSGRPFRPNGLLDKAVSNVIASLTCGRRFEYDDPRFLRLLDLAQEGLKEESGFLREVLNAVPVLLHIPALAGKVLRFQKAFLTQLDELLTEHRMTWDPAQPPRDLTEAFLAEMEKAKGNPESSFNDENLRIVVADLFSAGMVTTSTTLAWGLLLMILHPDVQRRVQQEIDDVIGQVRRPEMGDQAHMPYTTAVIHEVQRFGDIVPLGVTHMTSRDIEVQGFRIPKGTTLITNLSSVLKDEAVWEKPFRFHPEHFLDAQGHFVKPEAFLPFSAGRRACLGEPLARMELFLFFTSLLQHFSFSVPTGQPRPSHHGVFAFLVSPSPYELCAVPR
MEASURED ATTRIBUTE: IC50 (µM)

SMILES DATA	READOUT UNIT	RESULT
CCC[C@@H]1NC(=O)[C@@H](C(C)C)NC(=O)[C@@H](Cc2cccc(F)c2)N[C@@H](C)COc2ccccc2CCCNC1=O	µM	30.1
CCC[C@@H]1NC(=O)[C@@H](C(C)C)NC(=O)[C@@H](Cc2ccc(O)c(C(C)(C)C)c2)NCCOc2ccccc2CCCNC1=O	µM	80.8

Values from patent US9133235B2
